biological target: core αA (cAAC, residues 59-153) (human, UniProt P02489 59-153, some population of BME-adducted protein); assay: native MS; competition: 10 μM core domain with 40 μM each of L-Ser and D-Ser peptide, 200 mM ammonium acetate pH 6.9; monomeric species, 5+, 6+ and 7+ charge states; approximate dissociation constants calculated from abundance ratios (El-Hawiet et al.); conditions: both partners purified
Sequence (P02489 59-153): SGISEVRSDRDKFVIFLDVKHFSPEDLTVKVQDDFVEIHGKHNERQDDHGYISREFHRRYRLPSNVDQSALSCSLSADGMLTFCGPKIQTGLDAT
Where no end group is shown, it is not given here. [ ]: non-standard residue; d: D form.
value_kind: Kd (µM)

binder: ERAIPV[dS]RE [C-terminal palindromic peptide of αA-crystallin with D-Ser-162 (D-peptide)]
value_kind: Kd
experimental_value: 660
